Entry source: patent US7772241B2

Test system: LoVo-Dox
Assay: Inhibition of cells growth by colorimetric (SRB) assay, LoVo-Dox
Conditions: Homo sapiens, 48 h, read-out: LOVO-DOX GI50, SRB assay, 48 hours exposure
// boundary case: GI50 equal to 200 nM maps to 0.0; strictly smaller maps to 1.0

| MOLECULE | CATEGORY |
| --- | --- |
| Nc1nccc(-c2c3cccnc3n3c(N)nccc23)n1 [Deoxyvariolin 4, deoxyvariolin B, reference compound] | 1.0 |
| CS(=O)(=O)c1nccc(-c2c3cccnc3n3c(N)nccc23)n1 [Compound 73] | 0.0 |
| CSc1nccc(-c2c3c(Cl)ccnc3n3c(N)nccc23)n1.Cl [Compound 108] | 0.0 |

hey, is GI50 for CSc1nccc(-c2c3cccnc3n3c(N(C(C)=O)C(C)=O)nccc23)n1 [Compound 26] lower than 200 nM or not?
0.0

hey, is GI50 for CSc1nccc(-c2c3c(N)ccnc3n3c(N)nccc23)n1.Cl [Compound 93] lower than 200 nM or not?
0.0

hey, is GI50 for Cl.Nc1nccc(-c2c3c(O)ccnc3n3c(N)nccc23)n1 [Compound 54] lower than 200 nM or not?
1.0
